- assayMethodText: Evaluation of storage stability of ink (40° C. for 3 months, insoluble matter and clogging)
- Type: physicochemical
- assaySetup: recording liquid stored at 40° C. for 3 months; insoluble matter and clogging
propertyName: (C) storage stability

compound: Cc1c(N=Nc2cc(C(=O)O)ccc2C(=O)O)c(O)n(CCNC(=O)c2cc(C(=O)NCCn3c(O)c(N=Nc4cc(C(=O)O)ccc4C(=O)O)c(C)c(C#N)c3=O)c(C(=O)O)cc2C(=O)O)c(=O)c1C#N [Compound 296]
observed: ◯
//
compound: Cc1c(N=Nc2cccc(C(=O)O)c2C(=O)O)c(O)n(CCNC(=O)c2cc(C(=O)O)c(C(=O)NCCn3c(O)c(N=Nc4cccc(C(=O)O)c4C(=O)O)c(C)c(C#N)c3=O)cc2C(=O)O)c(=O)c1C#N [Compound 293]
observed: ◯
//
compound: Cc1c(N=Nc2c(C(=O)O)cccc2C(=O)O)c(O)n(CCNc2nc(Cl)nc(NCCn3c(O)c(N=Nc4c(C(=O)O)cccc4C(=O)O)c(C)c(C#N)c3=O)n2)c(=O)c1C#N [Compound 256]
observed: Δ

Values from patent US20040231558A1
